Biological target: Vitamin D3 receptor (Homo sapiens) (UniProt P11473)
Sequence (P11473 whole entry, looked up): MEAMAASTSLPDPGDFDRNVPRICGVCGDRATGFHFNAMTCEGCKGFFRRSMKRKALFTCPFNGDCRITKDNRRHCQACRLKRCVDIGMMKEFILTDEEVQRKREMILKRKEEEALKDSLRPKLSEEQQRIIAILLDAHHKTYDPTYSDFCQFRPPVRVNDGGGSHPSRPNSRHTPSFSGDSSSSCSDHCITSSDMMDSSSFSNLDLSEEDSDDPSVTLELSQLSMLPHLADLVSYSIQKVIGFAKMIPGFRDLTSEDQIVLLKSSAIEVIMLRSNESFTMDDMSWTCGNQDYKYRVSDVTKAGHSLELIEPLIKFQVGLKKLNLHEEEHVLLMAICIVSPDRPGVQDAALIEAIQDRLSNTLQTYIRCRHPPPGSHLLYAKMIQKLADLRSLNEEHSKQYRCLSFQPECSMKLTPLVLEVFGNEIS
Assay: qHTS assay to identify small molecule agonists of the vitamin D receptor (VDR) signaling pathway (AID 743222); note: % is set by controls: 0 for no effect and ±100 for the full control effect
Details: HEK293T VDR-UAS-bla, beta-lactamase FRET ratio, 16 h; series mostly up to 63.5 µM
Description: National Center for Advancing Translational Sciences [NCATS] NIH Chemical Genomics Center [NCGC] U.S. Environmental Protection Agency [EPA] National Institutes of Environmental Health Sciences [NIEHS] National Toxicology Program [NTP] U.S. Food and Drug Administration [FDA] The vitamin D receptor (VDR), a member of nuclear hormone receptor superfamily, plays a critical role in calcium homeostasis and bone metabolism. It is also involved in cell differentiation and growth, and thrombogenicity. […]
Results filed as inconclusive are left out. Activity calls are given as the source filed them. Calls come from the whole dose curve.
valueKind: activation

{"molecule": "CCOC(=O)c1ccc(C)cc1", "measuredResult": "inactive"}
{"molecule": "N[C@@H](C(=O)N[C@@H]1C(=O)N2C(C(=O)O)=C(Cl)CS[C@H]12)c1ccccc1", "measuredResult": "4.64% [at 13.4 µM] (inactive)"}
{"molecule": "OC1CCCCC1c1ccccc1 (stereo not given)", "measuredResult": "inactive"}
{"molecule": "O=C(CCCN1CCC(O)(c2cccc(C(F)(F)F)c2)CC1)c1ccc(F)cc1", "measuredResult": "inactive"}
{"molecule": "Cc1sccc1Br", "measuredResult": "inactive"}
{"molecule": "CC(C)CCCC(C)N (stereo not given)", "measuredResult": "inactive"}
{"molecule": "CCOC(=O)CC(C)=O", "measuredResult": "inactive"}
{"molecule": "O=C1CCCC(=O)C1", "measuredResult": "inactive"}
{"molecule": "CCOC(=O)[C@H](CCc1ccccc1)N[C@@H](C)C(=O)N1[C@H](C(=O)O)C[C@@H]2CCC[C@@H]21", "measuredResult": "inactive"}
{"molecule": "CCSC(=O)N(CC(C)C)CC(C)C", "measuredResult": "inactive"}
{"molecule": "CC(=O)OC/C=C(\\C)CC/C=C(\\C)CCC=C(C)C", "measuredResult": "inactive"}
{"molecule": "Cc1[nH]c(=O)c(C#N)cc1-c1ccc2nccn2c1", "measuredResult": "inactive"}
{"molecule": "Cc1c(O)cccc1O", "measuredResult": "inactive"}
{"molecule": "O=C(O)c1ccccc1OP(=O)(O)O", "measuredResult": "inactive"}
{"molecule": "CCC(C)C1CCCCC1=O (stereo not given)", "measuredResult": "inactive"}
{"molecule": "CCc1nccnc1CC", "measuredResult": "inactive"}
{"molecule": "CCOC(=O)c1c(C)n(C)c2ccc(O)cc12", "measuredResult": "inactive"}
{"molecule": "N[C@H](C(=O)O)c1ccc(O)cc1", "measuredResult": "inactive"}
{"molecule": "CCO[Si](CCC1CCC2OC2C1)(OCC)OCC (stereo not given)", "measuredResult": "inactive"}
{"molecule": "CN1CCC(=C2c3ccccc3CC(=O)c3sccc32)CC1", "measuredResult": "inactive"}
{"molecule": "CO[Si](CCCOCC1CO1)(OC)OC (stereo not given)", "measuredResult": "inactive"}
{"molecule": "COc1cc(C(=O)N2CCCCCCC2)cc(OC)c1OC", "measuredResult": "inactive"}
{"molecule": "CCOC(=O)c1cccc(N)c1", "measuredResult": "inactive"}
{"molecule": "NC(=O)c1ccc(N)cc1", "measuredResult": "inactive"}
{"molecule": "CCC(=O)OC(C)c1ccccc1 (stereo not given)", "measuredResult": "inactive"}
{"molecule": "OC[C@]1(O)OC[C@@H](O)[C@H](O)[C@@H]1O", "measuredResult": "inactive"}
{"molecule": "CC/C=C\\CCOC(C)=O", "measuredResult": "inactive"}
{"molecule": "CC(C)CNCC(C)C", "measuredResult": "inactive"}
{"molecule": "CN1CC(=O)NC1=N", "measuredResult": "inactive"}
{"molecule": "CC(=O)Nc1ccc(S(N)(=O)=O)cc1", "measuredResult": "inactive"}
